Reference for the values: patent US20230265183A1

Biological target: T1, human Nectin-4 (human, UniProt Q96NY8 32-510)
T1 sequence (looked up): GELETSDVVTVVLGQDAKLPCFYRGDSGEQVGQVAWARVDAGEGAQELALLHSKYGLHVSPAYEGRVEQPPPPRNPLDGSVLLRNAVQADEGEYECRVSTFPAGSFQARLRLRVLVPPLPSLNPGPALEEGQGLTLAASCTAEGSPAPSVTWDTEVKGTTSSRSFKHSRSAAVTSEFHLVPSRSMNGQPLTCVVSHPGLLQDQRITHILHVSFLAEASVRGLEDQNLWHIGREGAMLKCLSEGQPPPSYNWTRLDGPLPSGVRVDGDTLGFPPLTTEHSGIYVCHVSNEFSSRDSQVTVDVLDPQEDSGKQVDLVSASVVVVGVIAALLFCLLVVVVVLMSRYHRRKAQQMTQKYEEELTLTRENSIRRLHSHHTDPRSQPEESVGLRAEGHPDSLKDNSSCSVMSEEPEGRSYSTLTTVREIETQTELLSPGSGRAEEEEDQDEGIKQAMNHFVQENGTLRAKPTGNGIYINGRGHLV
Experiment: cell-based or functional assay
Give EC50 (ng/ml), inhibition of proliferation of BT474 cells for every item shown.
Numbers only, in ng/mL.

Example entries and their recorded answers appear below.
{"columns": ["binder", "u", "recorded measurement"],
 "data": [
  ["42D20 hz43-E (antibody, V domains shown, vcMMAE conjugated to the TECP-reduced antibody; residues not stated; DAR 4.0±1) VH: QVQLQESGPGLVKPSETLSLTCTVSGFSLIDYGVSWIRQPPGKGLEWIGVIWGDAKIYYNSVLKSRVTISKDNSKSQVSLKLSSVTAADTAVYYCAKQGGLLFYAMDYWGQGTLVTVSS VL: DIVMTQSPDSLAVSLGERATINCKSSQSLLNTYSQKNYLAWYQQKPGQSPKLLIYFASTRESGVPDRFSGSGSETDFTLTISSLQAEDLAVYFCQQHYNTPFTFGAGTKLELKR", "ng/mL", 6.31],
  ["20M12 hz11-E (antibody, human IgG1, kappa, V domains shown, vcMMAE conjugated to the TECP-reduced antibody; residues not stated; DAR 4.0±1) VH: QVQLVQSGAEVKKPGASVKVSCKASGYTFTSYYIHWVRQAPGQRLEWMGWIYPGNANNKYNENFKGRVTITADKSASTAYMELSSLRSEDTAVYYCARSVYYFDYWGQGTLVTVSS VL: EVVMTQSPATLSVSPGERATLSCKASQSVSNDVAWYQQKPGQAPRLLIYYASNRNTGIPARFSGSGSGTEFTLTISSLQSEDLAVYFCQQDYSSPYTFGGGTKVEIKR", "ng/mL", 31.6],
  ["20M12 hz01-E (antibody, human IgG1, kappa, V domains shown, vcMMAE conjugated to the TECP-reduced antibody; residues not stated; DAR 4.0±1) VH: QVQLVQSGAEVKKPGASVKVSCKASGYTFTSYYIHWVRQAPGQRLEWMGWIYPGNANNKYNENFKGRVTITRDTSASTAYMELSSLRSEDTAVYYCARSVYYFDYWGQGTLVTVSS VL: EVVMTQSPATLSVSPGERATLSCKASQSVSNDVAWYQQKPGQAPRLLIYYASNRNTGIPARFSGSGSGTEFTLTISSLQSEDLAVYFCQQDYSSPYTFGGGTKVEIKR", "ng/mL", 24.2]
]}

The record that follows has no EC50 (ng/ml), inhibition of proliferation of BT474 cells shown yet.
// query Which value of EC50 (ng/ml), inhibition of proliferation of BT474 cells has been reported for 20M12 xiIgG-E (antibody, V domains shown, vcMMAE conjugated to the TECP-reduced antibody; residues not stated; DAR 4.0±1) VH: QVQLQQSGPELVKPGASVRISCKASGYTFTSYYIHWVKQRPGQGLEWIGWIYPGNANNKYNENFKGKATLTADKSSSTAYMQLSSLTSEDSAVYFCARSVYYFDYWGQGTTLTVSS VL: SVVMTQTPKFLLVSAGDRVTITCKASQSVSNDVAWYQQKPGQSPKLLIYYASNRNTGVPDRFTGSGYGTDFTFNISTVQAEDLAVYFCQQDYSSPYTFGGGTKLEIKR in the records?
// result 14.8
